Test system: NCI-H522 lung
Test: NCI-60 one-dose screen, 48 h (100 = growth as untreated, 0 = no growth, -100 = all killed)
Details: 10 µM unless noted
Compounds without any hit were thinned out: in the full panel of roughly 83,000, 20% have a hit.
recorded_endpoint: growth (%)
Report the figure in % without appending any unit label.

Answered examples (2):
[[record]]
molecule = "O[C@@H](c1cc(C(F)(F)F)nc2c(C(F)(F)F)cccc12)[C@H]1CCCCN1"
test_system = "NCI-H522 lung"
test_result = 40

[[record]]
molecule = "O=C(CCC(=O)c1nc2ncccc2[nH]1)NN1C(=O)CSC1c1ccc(Cl)cc1 (stereo not drawn)"
test_system = "NCI-H522 lung"
test_result = 83


Prompt: Report growth, nothing else, for this molecule: C=CC(C)(O)CC/C=C(\CO)C(=O)OC1C(C)OC(O[C@](C)(C=C)CC/C=C(\CO)C(=O)O[C@H]2C[C@@]3(C(=O)OC4OC(CO)C(O)C(O)C4OC4OC(C)C(OC5OC(CO)C(O)C5O)C(OC5OC(CO)C(O)C(O)C5O)C4O)C(CC2(C)C)C2=CCC4[C@@]5(C)CC[C@H](OC6OC(COC7OC(C)C(O)C(O)C7OC7OCC(O)C(O)C7O)C(O)C(O)C6NC(C)=O)C(C)(C)C5CC[C@@]4(C)[C@]2(C)C[C@H]3O)C(O)C1O (stereo partly drawn)
Response: -58.8
